Test system: SEM cells
Test: cell viability relative to DMSO control; higher = less cytotoxic
Conditions: RPMI 5 mM glucose + 10% dialyzed FBS; 48 h; 0.000781 µM
Reported cell viability values are given for each entry in this list.
The response must be a number in % with no trailing unit.

COMPOUND	cell viability, %
CNc1nc(Nc2cnn([C@H]3CCN(C4COC4)C[C@@H]3F)c2Cl)ncc1C(F)(F)F	101

// moving on: another record for cell viability
The reported value for C=CC(=O)Nc1cc2c(Nc3ccc(F)c(Cl)c3)ncnc2cc1OCCCN1CCOCC1 in terms of cell viability is 119

###

Test system: NOMO1
Experiment: cell viability relative to DMSO control; higher = less cytotoxic
Conditions: HPLM + 10% dialyzed FBS; 48 h; 0.569 µM
Reported cell viability values are given for each entry in this list.
The response must be a number in % with no trailing unit.

Sample records with cell viability:
SAMPLE SMILES	SCALE UNIT	cell viability
Cc1cc2c(C(N)=O)cccc2n1-c1nc2c(c(NCc3ccccc3)n1)COCC2	%	85.5
CC1=CC(=CC(=C1C\C2=N\CCN2)C)C(C)(C)C	%	108
Cc1cccc(Nc2ccncc2[S+](=O)([O-])NC(=O)NC(C)C)c1	%	103
COc1cccc2c1C(=O)c1c(O)c3c(c(O)c1C2=O)C[C@@](O)(C(=O)CO)C[C@@H]3O[C@H]1C[C@H](N)[C@H](O)[C@H](C)O1	%	116

// moving on: another record for cell viability
Measured cell viability (NOMO1), entry CCc1ccc(/C=C2/SC(=S)NC2=O)cc1 : 79.2
